system: kochia (Kochia scoparia); assay: Test C preemergence; type: in vivo; details: preemergence; Rate 250 g/ha; scale 0 to 100, 0 no effect, 100 complete control
assay-endpoint: Plant response rating, Kochia
Field format: numeric only.

# molecule, Plant response rating, Kochia
rows = [
    ("COc1cc(N2CCC(n3ccc(C(C)C)n3)C2=O)ccc1Br (stereo not drawn)", 100),
    ("CCOc1cc(N2CCC(n3ccc(C(C)(C)C)n3)C2=O)ccc1C (stereo not drawn)", 100),
    ("CCC(CC)c1ccn(C2OCN(c3cccc(OC(F)F)c3)C2=O)n1 (stereo not drawn)", 100),
]

Req: Given CCCC(C)c1ccn(C2OCN(c3cccc(OC(F)(F)F)c3)C2=O)n1 (stereo not drawn) , state its recorded Plant response rating, Kochia.
Resp: 90

Req: Which measured Plant response rating, Kochia value corresponds to CCCC(C)c1ccn(C2CCN(c3cccc(OC)c3)C2=O)n1 (stereo not drawn) ?
Resp: 90

Req: Please give the measured Plant response rating, Kochia for this molecule: CCC(C)c1ccn(C2OCN(c3cccc(OC(F)F)c3)C2=O)n1 (stereo not drawn)
Resp: 100

Req: Would you mind telling me what Plant response rating, Kochia value was observed for Cc1cc(C)nc(N2CCC(n3ccc(C(C)(C)C)n3)C2=O)c1 (stereo not drawn) ?
Resp: 100

Req: Which Plant response rating, Kochia is listed for CC(C)(C)c1ccn(C2CCN(c3cccc(SC(F)(F)F)c3)C2=O)n1 (stereo not drawn) ?
Resp: 30

Req: Form field: reported Plant response rating, Kochia of CCC(C)Oc1cccc(N2CCC(n3ccc(C(C)(C)C)n3)C2=O)c1 (stereo not drawn)
Resp: 0

###

tested on: kochia (Kochia scoparia); test: Test C preemergence; format: in vivo; settings: preemergence, Rate 31 g/ha, scale 0 to 100
assay-endpoint: Plant response rating, Kochia

# compound, system, Plant response rating, Kochia
rows = [
    ("CC(C)Oc1cccc(N2CCC(n3ccc(C(C)(C)C)n3)C2=O)c1 (stereo not shown)", "kochia (Kochia scoparia)", 0),
    ("CC(C)(C)c1ccn(C2CCN(c3ccc(Cl)c(Cl)c3)C2=O)n1 (stereo not shown)", "kochia (Kochia scoparia)", 100),
    ("O=C1C(n2ccc(C3CCC3)n2)SCN1c1cccc(C(F)(F)F)c1 (stereo not shown)", "kochia (Kochia scoparia)", 40),
]

Let's switch to this compound now.
Req: What value of Plant response rating, Kochia has been recorded for this entry: CC(C)(C)c1ccn(C2CCN(c3cccc(Cl)c3)C2=O)n1 (stereo not shown)
Resp: 70

###

tested on: Surinam grass (Brachiaria decumbens); test: Test C preemergence; format: in vivo; conditions: Rate 125 g/ha; scale 0 to 100, 0 no effect, 100 complete control
assay-endpoint: Plant response rating, Surinam grass
// no unit, no text: just the number

# compound, system, Plant response rating, Surinam grass
rows = [
    ("COc1cc(N2CCC(n3ccc(C(C)C)n3)C2=O)ccc1C (stereo not shown)", "Surinam grass (Brachiaria decumbens)", 30),
]

Req: # input compound: CCC(CC)c1ccn(C2CCN(c3ccc(F)c(C(F)(F)F)c3)C2=O)n1 (stereo not shown) ; wanted: its Plant response rating, Surinam grass
Resp: 0

Req: Plant response rating, Surinam grass lookup needed for CCOc1cccc(N2CCC(n3ccc(C(C)C)n3)C2=O)c1 (stereo not shown) , thanks.
Resp: 100
